assay: qHTS Assay for Lipid Storage Modulators (AID 1519); details: Drosophila S3 cells, BODIPY lipid droplet/cell ratio, laser cytometry; measured here: lipid channel max response; cells loaded with oleic acid
Records with an inconclusive call do not appear.
endpoint.name: max response (%)
Write the number in % without appending the unit.

compound	readout.number
CC(C)(C)c1o[nH]c(=O)c1C[C@H](N)C(=O)O	-7.95
c1ccc2c(c1)OC[C@@H](C1=NCCN1)O2	-5.05
CC[C@H](Oc1ccc(Cl)cc1)C(=O)OC1C[C@H]2CC[C@@H](C1)N2C (some centres undefined)	28.8
CN[C@@H](Cc1c[nH]c2ccccc12)C(=O)O	3.12
c1cncc(C2=NCCC2)c1	-18.1
CC1OC(=O)C(C(C)C)NC(=O)C(C(C)C)OC(=O)C(C(C)C)NC(=O)C(C)OC(=O)C(C(C)C)NC(=O)C(C(C)C)OC(=O)C(C(C)C)NC(=O)C(C)OC(=O)C(C(C)C)NC(=O)C(C(C)C)OC(=O)C(C(C)C)NC1=O (centres undefined)	-94.2
Cc1nc(N)sc1CCN	-2.18
CCC1CN2CCC1CC2C(O)c1ccnc2ccccc12 (centres undefined)	-3.67
CC[N+](CC)(CCCNC1=CC(=O)C(NCCC[N+](CC)(CC)Cc2ccccc2)=CC1=O)Cc1ccccc1	-3.95
CC(C)(c1ccc(OC[C@@H]2CO2)cc1)c1ccc(OC[C@H]2CO2)cc1	20.3

[Q] Need max response of `CCN(CC)/[N+]([O-])=N/O` , thanks.
[A] -4.74

[Q] Also check `CCCN(CCC)[C@@H]1CCc2c(OC)cccc2[C@@H]1C`
[A] 12.1

[Q] Also check Clc1ccc(COC(Cn2ccnc2)c2ccc(Cl)cc2Cl)c(Cl)c1 (centres undefined)
[A] -3.69

[Q] Also check `CC(C)n1cnc2c(C(=O)N[C@H]3CN4CCC3CC4)cc(Cl)cc21`
[A] 19.1

[Q] Also check `Clc1ccc([C@@H]2C[C@H]3CC[C@@H]2N3)cn1`
[A] -1.79

---

system: JEG-3; assay: Primary qHTS to identify gynecologic anti-cancer compounds using libraries of approved drugs and bioactive compounds (AID 1345084); details: Gynecologic cancer cell panel viability, ATPlite luminescence, 48 h; series mostly up to 57.5 µM; note: nearly all actives have a fitted effect of over 55% in size; for activity change, negative = cytotoxicity: % is set by controls: 0 for no effect and ±100 for the full control effect
Results filed as inconclusive are left out. Activity calls are given as the source filed them. Calls come from the whole dose curve; as a rule, active = well fitted cell-killing curve with a large enough effect; inconclusive = small, poorly fitted or top-dose-only effect, or effect the other way; inactive = flat fitted curve, though single readings scatter.

compound	activity change, negative = cytotoxicity
C[C@]12CC[C@H](OC3OC(CO)C(O)C(O)C3OC3OC(CO)C(O)C(O)C3O)C[C@@H]1CC[C@@H]1C2CC[C@]2(C)[C@@H](C3=CC(=O)OC3)CC[C@]12O (stereo partly drawn)	inactive
Cc1ccc(-n2nccn2)c(C(=O)N2CCN(c3nc4cc(Cl)ccc4o3)CCC2C)c1 (stereo not drawn)	inactive
C/C=C1/CN2CC[C@]34C(=Nc5ccc(OC)cc53)C2C[C@@H]1C4(CO)C(=O)OC (stereo partly drawn)	inactive

---

tested on: Hek293T; experiment: Primary qHTS to identify gynecologic anti-cancer compounds using libraries of approved drugs and bioactive compounds (AID 1345084); details: Gynecologic cancer cell panel viability, ATPlite luminescence, 48 h, control line for the selectivity index; series mostly up to 57.5 µM; note: nearly all actives have a fitted effect of over 55% in size
Records with an inconclusive call do not appear. The source made the active and inactive calls. Calls come from the whole dose curve; as a rule, active = well fitted cell-killing curve with a large enough effect; inconclusive = small, poorly fitted or top-dose-only effect, or effect the other way; inactive = flat fitted curve, though single readings scatter.
Lab note: assign the record to one of Y for active, N for inactive

molecule	target.entity	cat
NC(=O)[C@@H](CC1CC1)[C@@H](CCC(F)(F)F)C(=O)N[C@H]1N=C(c2ccccc2)c2cccc(F)c2NC1=O	Hek293T	N
CC(=O)O[C@H]1C[C@@H](C)O[C@H]2O[C@@H]3CC4CC[C@@H]5C(CC[C@]6(C)[C@@H](C7=CC(=O)OC7)CC[C@]56O)[C@@]4(C=O)C[C@H]3O[C@]21O (some centres not stated)	Hek293T	Y
CO[C@H]1[C@H](O)[C@H](O[C@H]2CC[C@]3(C=O)C4CC[C@]5(C)[C@H](C6=CC(=O)OC6)CC[C@]5(O)C4CC[C@@H]3C2)O[C@@H](C)[C@@H]1O (some centres not stated)	Hek293T	Y
CCCN(CCC)[C@@H]1CCc2ccc3[nH]c(C#N)cc3c2C1	Hek293T	N
C=C(C)C(=O)O[C@H]1[C@@H]2[C@H](C)C(=O)O[C@@H]2C[C@@H](C)[C@@H]2C=CC(=O)[C@]21C	Hek293T	Y
O=C(N1CCCCC1Cc1ccccc1)n1cc(-c2ccc(-c3ccccc3)cc2)nn1 (configuration not stated)	Hek293T	N

Now for another entry.
[Q] I'd appreciate the recorded outcome for `CCOC(=O)Nc1ccc(NCc2c(C)cc(C)cc2C)cc1N` from this test.
[A] N

---

assay: qHTS for Inhibitors of the Functional Ribonucleoprotein Complex (vRNP) of Lassa (LASV) Arenavirus: Viability assay - alamar blue signal for LASV Primary Screen (AID 1347083); details: cell viability, alamar blue fluorescence (LASV minigenome counter-screen); series mostly up to 57.5 µM; note: nearly all actives have a fitted effect of over 80% in size
Records with an inconclusive call do not appear. Active and inactive are the calls of the source. The call rests on the fitted dose curve; tested in HEK293 reporter line.
Lab note: assign the record to one of active, inactive

Observe how each entry below is paired with its result.
compound	cat
Cc1cc(N2CCOCC2)cc2[nH]c(-c3c(NC[C@@H](O)c4cccc(Cl)c4)cc[nH]c3=O)nc12	active
O=C(O)C1=CO[C@@H](O[C@@H]2O[C@H](CO)[C@H](O)[C@H](O)[C@H]2O)[C@@H]2C(CO)=CC[C@H]12	inactive
CC1(C)C2CC[C@]3(C)C(CC=C4[C@@H]5C[C@@](C)(CO)[C@@H]6C[C@@]5(CC[C@]43C)C(=O)O6)[C@@]2(C)CC[C@@H]1O (stereo not given in full)	inactive
COc1cccc([C@@H](C)NCCCc2ccccc2Cl)c1	inactive

Now for another entry.
[Q] I'd appreciate the recorded outcome for `O=C(NCCCCN1CCOCC1)c1cc2ccccc2o1` from this test.
[A] inactive

---

test: qHTS for Inhibitors of the Functional Ribonucleoprotein Complex (vRNP) of Lassa (LASV) Arenavirus: Viability assay - alamar blue signal for LASV Primary Screen (AID 1347083); settings: cell viability, alamar blue fluorescence (LASV minigenome counter-screen); series mostly up to 57.5 µM; note: nearly all actives have a fitted effect of over 80% in size
Results filed as inconclusive are left out. The source made the active and inactive calls. Calls come from the whole dose curve; tested in HEK293 reporter line.
Lab note: assign the record to one of active, inactive

Observe how each entry below is paired with its result.
compound	cat
c1ccc2nc(C3=NCCN3)ccc2c1	inactive
C[C@]1(CC/C(=C/CO)CO)[C@H](CO)CC[C@@]23COC(=O)C2=CCC[C@@H]31	inactive
COc1cc(C[C@@H](CO)[C@H](CO)Cc2ccc(O)c(OC)c2)ccc1O	active
C[C@@H]1COC(Nc2ccc3ncnc(Nc4ccc(OCc5nccs5)c(Cl)c4)c3c2)=N1	active
O=c1ccn([C@@H]2O[C@H](COP(=O)(O)O)[C@@H](O)[C@H]2O)c(=O)[nH]1	inactive
COc1cc(O)c(C(C)=O)c2c1C=CC(C)(C)O2	inactive

[Q] I'd appreciate the recorded outcome for `CCNC(=O)[C@H]1O[C@@H](n2cnc3c(N)nc(NCCc4ccc(CCC(=O)O)cc4)nc32)[C@H](O)[C@H]1O` from this test.
[A] inactive

[Q] Also check CC(C)C(O)(C(=O)OC[C@@H]1CC[N+]2([O-])CCCC12)C(C)O (stereo partly drawn)
[A] inactive

[Q] Also check `N#C/C(=C\c1ccc(O)c(O)c1)C(=O)Nc1ccccc1`
[A] inactive

[Q] Also check CCCCC/C=C\CC(O)/C=C/c1cccc(CC(O)CCCCO)n1 (stereo not drawn)
[A] inactive

---

assay: qHTS for Antimalaria activity screened against the NCATS CANVASS Library (AID 1347380); note: nearly all actives have a fitted effect of over 40% in size; details: P. falciparum Dd2 growth, SYBR Green fluorescence, 72 h; series mostly up to 28.7 µM
Inconclusive results are not listed. Calls of active or inactive are those of the source. The call rests on the fitted dose curve; in most records, active means well fitted cell-killing curve with a large enough effect; inconclusive means small, poorly fitted or top-dose-only effect, or effect the other way; inactive means no such curve, though single readings can be large or run the other way.
Lab note: assign the record to one of active, inactive

chem.smiles	cat
CC(=O)N[C@H]1CCN2CCC[C@H]12	inactive
CCC(=O)CCCCC[C@@H]1NC(=O)[C@H]2CCCCN2C(=O)[C@H]([C@@H](C)CC)NC(=O)[C@H](Cc2cn(OC)c3ccccc23)NC1=O	active

[Q] I'd appreciate the recorded outcome for `C[C@@H]1CC[C@@H](c2ccoc2)N2C[C@@]3(CC[C@@H]12)CS[C@@]1(CC[C@H]2[C@H](C)CC[C@@H](c4ccoc4)N2[C@@H]1O)C3` from this test.
[A] active

[Q] Also check `CC[C@@H]1CN2CC[C@@]3(O)C(=Nc4cccc(OC)c43)[C@@H]2C[C@@H]1/C(=C\OC)C(=O)OC`
[A] active

---

assay: qHTS assay for small molecule disruptors of mitochondrial membrane potential screened against the NCATS CANVASS Library (AID 1347389); conditions: HepG2 mitochondrial membrane potential, m-MPI red/green ratio, 1.5 h; series mostly up to 46.1 µM; note: nearly all actives have a fitted effect of over 60% in size
Records with an inconclusive call do not appear. Active and inactive are the calls of the source. Calls follow the shape of the dose curve; as a rule, active = well fitted inhibition curve with a large enough effect; inconclusive = small, poorly fitted or top-dose-only effect; inactive = flat fitted curve, though single readings scatter.
Lab note: assign the record to one of active, inactive

Observe how each entry below is paired with its result.
compound	cat
COc1ccc2c(c1)[nH]c1c(C)nccc12	inactive
CC(=O)N[C@H]1CCN2CCC[C@H]12	inactive
CO[C@@H](/C=C/CC/C=C/C(=O)O)[C@@H](O)[C@H](C)[C@@H](O)/C(C)=C/[C@H](C)C(=O)CCCC1CC(=O)NC(=O)C1	inactive
CCN1C[C@]2(C)CC[C@H](O)[C@]34C1C(C[C@H]23)[C@@]12CC[C@H](CC14)[C@](O)(COC(=O)c1ccc(OC)c(OC)c1)[C@H]2O (stereo partly drawn)	inactive
CNCCc1c[nH]c2ccccc12	inactive

[Q] I'd appreciate the recorded outcome for `C[C@@H]1CC[C@@H](c2ccoc2)N2C[C@@]3(CC[C@@H]12)CS[C@@]1(CC[C@H]2[C@H](C)CC[C@@H](c4ccoc4)N2[C@@H]1O)C3` from this test.
[A] active

[Q] Also check `CN(C)Cc1c[nH]c2ccccc12`
[A] inactive

[Q] Also check `O=C(c1ccccc1O)c1[nH]c(Cl)c(Cl)c1-n1c(C(=O)c2ccccc2O)cc(Cl)c1Cl`
[A] active
